# TESTED SYSTEM: T1, human αvβ6-Integrin (human, UniProt P06756 31-992; P18564 22-707, limits assumed)
# T1 construct: Soluble integrin bought from R&D
# T1 sequence (P06756 31-992 limits assumed, chain 1 of 2): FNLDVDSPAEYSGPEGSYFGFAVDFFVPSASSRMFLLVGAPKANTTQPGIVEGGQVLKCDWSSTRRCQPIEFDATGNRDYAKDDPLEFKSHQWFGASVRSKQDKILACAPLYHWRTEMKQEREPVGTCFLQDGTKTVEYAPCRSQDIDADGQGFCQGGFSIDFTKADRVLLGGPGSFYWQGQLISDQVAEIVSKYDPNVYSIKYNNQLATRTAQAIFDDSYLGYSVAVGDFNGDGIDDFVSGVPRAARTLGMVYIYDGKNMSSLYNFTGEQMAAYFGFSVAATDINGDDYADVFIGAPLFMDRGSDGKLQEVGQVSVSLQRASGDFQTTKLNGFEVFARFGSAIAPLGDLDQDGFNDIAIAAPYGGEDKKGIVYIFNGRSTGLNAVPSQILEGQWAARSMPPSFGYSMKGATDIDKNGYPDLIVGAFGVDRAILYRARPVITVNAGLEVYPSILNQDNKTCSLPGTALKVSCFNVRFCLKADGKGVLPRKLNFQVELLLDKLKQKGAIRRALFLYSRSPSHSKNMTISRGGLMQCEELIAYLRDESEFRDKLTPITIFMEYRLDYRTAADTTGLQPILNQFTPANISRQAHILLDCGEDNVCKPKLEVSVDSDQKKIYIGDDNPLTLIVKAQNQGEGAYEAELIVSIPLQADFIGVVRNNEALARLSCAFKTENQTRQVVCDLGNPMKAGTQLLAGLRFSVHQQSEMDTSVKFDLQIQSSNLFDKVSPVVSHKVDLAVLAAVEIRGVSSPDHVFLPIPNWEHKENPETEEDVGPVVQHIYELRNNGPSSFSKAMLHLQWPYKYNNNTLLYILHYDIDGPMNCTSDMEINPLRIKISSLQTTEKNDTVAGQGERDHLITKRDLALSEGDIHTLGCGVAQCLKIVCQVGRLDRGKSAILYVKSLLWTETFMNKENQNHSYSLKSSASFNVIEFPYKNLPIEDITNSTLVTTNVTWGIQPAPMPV
# T1 sequence (P18564 22-707 limits assumed, chain 2 of 2): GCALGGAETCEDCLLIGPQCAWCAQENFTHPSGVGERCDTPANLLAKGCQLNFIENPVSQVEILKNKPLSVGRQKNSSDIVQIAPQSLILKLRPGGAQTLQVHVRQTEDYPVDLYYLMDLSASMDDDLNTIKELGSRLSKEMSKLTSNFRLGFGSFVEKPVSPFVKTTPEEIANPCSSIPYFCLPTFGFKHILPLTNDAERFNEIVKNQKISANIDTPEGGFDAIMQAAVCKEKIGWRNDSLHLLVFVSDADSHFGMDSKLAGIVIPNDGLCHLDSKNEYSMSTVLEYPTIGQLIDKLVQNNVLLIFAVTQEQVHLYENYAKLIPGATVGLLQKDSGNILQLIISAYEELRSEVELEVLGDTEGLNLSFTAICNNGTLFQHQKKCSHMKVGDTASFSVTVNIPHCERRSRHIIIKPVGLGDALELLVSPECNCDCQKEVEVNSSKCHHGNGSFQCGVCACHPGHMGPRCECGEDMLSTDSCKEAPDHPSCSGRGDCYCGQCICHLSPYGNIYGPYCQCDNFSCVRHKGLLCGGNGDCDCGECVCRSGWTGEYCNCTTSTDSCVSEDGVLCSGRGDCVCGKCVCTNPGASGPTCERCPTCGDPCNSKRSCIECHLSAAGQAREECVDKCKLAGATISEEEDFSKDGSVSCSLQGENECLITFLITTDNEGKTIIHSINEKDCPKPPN
# ASSAY EXPLANATION: solid-phase competition assay: soluble human αvβ6 on coated LAP (TGF-β)
[ ]: non-standard residue; d: D form. dNMeR = CN[C@H](CCCNC(=N)N)C(=O)O; NMeA = CN[C@@H](C)C(=O)O; dNMeA = CN[C@H](C)C(=O)O
ENDPOINT: IC50 (nM)
A number alone suffices; assume nM.

-- ask So what does the record say about IC50 for cyclo([dNMeA]RGDA[NMeA]) (NMe(1,6) scaffold cyclic hexapeptide; also called the drug) [peptide 12, c(*aRGDA*A)] ?
-- reply 770

-- ask So what does the record say about IC50 for cyclo([dR]GDA[NMeA][NMeA]) (NMe(5,6) scaffold cyclic hexapeptide) [peptide 23, c(rGDA*A*A)] ?
-- reply 130

-- ask So what does the record say about IC50 for cyclo([dNMeR]GDA[NMeA]V) (NMe(1,5) scaffold cyclic hexapeptide) [peptide 32, c(*rGDA*AV)] ?
-- reply 3.8

-- ask So what does the record say about IC50 for cyclo([dNMeR]GDA[NMeA]A) (NMe(1,5) scaffold cyclic hexapeptide) [peptide 5, c(*rGDA*AA)] ?
-- reply 25

-- ask So what does the record say about IC50 for cyclo([dNMeR]GDA[NMeA]F) (NMe(1,5) scaffold cyclic hexapeptide) [peptide 33, c(*rGDA*AF)] ?
-- reply 25

Reference for the values: patent US20220016218A1
